Target: rhIL-6-His (recombinant human IL-6, Val30 to Met212, C-terminal 6 His) (human, UniProt P05231 30-212)
Sequence (P05231 other isoform, or with tags, fused parts or gaps limits assumed): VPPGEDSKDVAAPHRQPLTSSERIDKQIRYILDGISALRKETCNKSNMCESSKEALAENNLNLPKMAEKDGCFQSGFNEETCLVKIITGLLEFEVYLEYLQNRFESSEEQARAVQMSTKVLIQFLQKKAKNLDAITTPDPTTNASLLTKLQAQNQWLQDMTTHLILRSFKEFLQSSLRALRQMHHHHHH
Assay: BLI, ForteBio Blitz
quantityName: kon (M⁻¹ s⁻¹)
Give the value, in units of M⁻¹ s⁻¹, as a plain number.

Siltuximab (antibody, V domains shown) VH: EVQLVESGGKLLKPGGSLKLSCAASGFTFSSFAMSWFRQSPEKRLEWVAEISSGGSYTYYPDTVTGRFTISRDNAKNTLYLEMSSLRSEDTAMYYCARGLWGYYALDYWGQGTSVTVSS VL: QIVLIQSPAIMSASPGEKVTMTCSASSSVSYMYWYQQKPGSSPRLLIYDTSNLASGVPVRFSGSGSGTSYSLTISRMEAEDAATYYCQQWSGYPYTFGGGTKLEIK
28900
HZ-0408d (antibody, human IgG1, kappa, V domains shown, Humanized from murine 140-4; IgG1 type antibody from 293F cells; also called L3/H3) VH: QVTLKESGPVLVKPTETLTLTCTVSGFSLSTSGMGVGWIRQPPGKALEWLAHIWWDDDKRYNSALKSRLTISKDTSKSQVVLTMTNMDPVDTATYYCARIGGLYVDYLMDYWGQGTLVTVSS VL: DIQMTQSPSSLSASVGDRVTITCRASQSISDYLHWYQQKPGKAPKLLIYYASQSISGVPSRFSGSGSGTDFTLTISSLQPEDFATYYCQNGHSFPWTFGQGTKVEIKR
93200

// query Report measured kon; entry is HZ-0408a (antibody, human IgG1, kappa, V domains shown, Humanized from murine 140-4; expressed in 293F cells and captured on Protein A as an IgG1 type antibody; also called L1/H2) VH: QVTLKESGPALVKPTQTLTLTCTFSGFSLSTSGMGVGWIRQPPGKALEWLAHIWWDDDKRYNSALKSRLTISKDTSKNQVVLTMTNMDPVDTATYYCARIGGLYVDYLMDYWGQGTLVTVSS VL: EIVLTQSPDFQSVTPKEKVTITCRASQSISDYLHWYQQKPDQSPKLLIKYASQSISGVPSRFSGSGSGTDFTLTINSLEAEDAATYYCQNGHSFPWTFGQGTKVEIKR
// result 128000
